Where do these numbers come from? They come from the RNAGym collection of RNA variant scans (doi:10.1093/molbev/msab373).

B1: Azoarcus group I ribozyme (parent)
chain: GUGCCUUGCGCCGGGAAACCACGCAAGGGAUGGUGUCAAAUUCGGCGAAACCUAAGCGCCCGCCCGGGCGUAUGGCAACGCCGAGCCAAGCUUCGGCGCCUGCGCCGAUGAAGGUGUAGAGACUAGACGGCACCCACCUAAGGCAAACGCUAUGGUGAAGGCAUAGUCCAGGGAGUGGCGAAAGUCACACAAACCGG

# Variants of: B1
# PROCEDURE_DETAILS: reverse-splicing fitness (ratio to wild type); higher = more active; in vitro selection; Mg2+ level not given
Reported reverse-splicing fitness values for the following variants.

Example entries and their recorded answers appear below.
                          variant_code   result
0   C82G A111C A145G C150G C169G U176G  0.00603
1  A111C A120G A145U C150G C169U U176G  0.00442

C82A A111G C150A C169A U176G has a reported reverse-splicing fitness of 0.0074

C82G A111G A120G A145U C169A U176G has a reported reverse-splicing fitness of 0.00446
